Data credit: patent US9221802B2

assay: Glutathione (GSH) addition assay after metabolic activation; type: in vitro ADME, human; parameters: key: Samples for which the mass of a covalent adduct to a reactive metabolite was clearly detected are indicated as FLAG (positive); Compounds for which no adduct was detected are designated NO FLAG (negative); settings: glutathione adduct detection after metabolic activation
Value kind: GSH [HLM]

Use the examples below as a reference point.
O=C1OC[C@H]2CCC[C@H]2N1c1ccc(C#Cc2ccc(F)cc2)cn1 ... NO FLAG
O=C1O[C@H]2CCC[C@H]2CN1c1ccc(C#Cc2ccccc2)cn1 ... FLAG
CC1(C)CCN(c2ccc(C#Cc3ccc(F)cc3)cn2)C(=O)O1 ... FLAG
O=C1OC[C@H]2CCC[C@H]2N1c1ccc(C#Cc2ccccc2)cn1 ... NO FLAG
CC1(C)CCN(c2ccc(C#Cc3cccc(F)c3)cn2)C(=O)O1 ... FLAG
CC1(C)CCN(c2ccc(C#Cc3cc(F)ccc3F)cn2)C(=O)O1 ... FLAG
O=C1OC[C@H]2CCC[C@H]2N1c1ccc(C#Cc2cccc(F)c2)cn1 ... NO FLAG
O=C1OC[C@H]2CCC[C@H]2N1c1ccc(C#Cc2cc(F)ccc2F)cn1 ... NO FLAG

--- query ---
Query: I am curious: what GSH [HLM] value has been reported for CC1(C)CCN(c2ccc(C#Cc3ccccc3)cn2)C(=O)O1 ?
Reply: FLAG
